All values here come from paper PMC5540273.

tested on: CDK4; conditions: concentration: 1 μM, replicates: in singlicate; n = 1
Listing of recorded %Inh by entry.
Express your answer in %, writing the number without its unit.

Worked examples follow.
COc1ccc(S(=O)(=O)NC2CCN(c3cc(C)nc(Nc4cccc(C#N)c4)n3)CC2)cc1.O=C(O)C(F)(F)F = 38
O=C(NCCNc1ccnc(Nc2ccc(F)cc2)n1)Nc1ccccc1F = 28
NS(=O)(=O)CCc1cccc(Nc2nccc(-c3c(-c4cccc(NC(=O)c5c(F)cccc5F)c4)nn4ccccc34)n2)c1 = 19
Cc1nnc(-c2ccc3ncc(-c4ccc(S(C)=O)cc4)n3c2)o1 (centres unmarked) = 0
Cc1cn2c(=O)cc(N3CCOCC3)nc2n1Cc1cccc(Cl)c1Cl = 3

# %Inh lookup, item "Fc1ccc(-c2ncn(CCCN3CCOCC3)c2-c2cccnc2)cc1"
1

Suppose we examine the compound "O=c1cc(N2CCOCC2)nc2n(Cc3cccc4ccccc34)ccn12" ; what %Inh value has been reported?
0

Which %Inh is reported for this compound? "N#Cc1ccc(-c2cc(-c3c[nH]nc3-c3ccccn3)ccn2)cc1"
11

Can you share its %Inh? I mean this compound: "CN(C(=O)c1ccc(-c2cc(-c3c[nH]nc3-c3ccccn3)ccn2)cc1)C1CCOCC1"
15

State the recorded %Inh for this entry: "COc1cc2c(cc1OC[C@@H](O)CO)ncc1c3ccc(C#N)cc3[nH]c21"
4

###

Entries annotated with measured %Inh
tested on: MLK3; conditions: concentration: 1 μM, replicates: in singlicate; n = 1
Please give the number followed by its unit.

Cc1ccc(C(=O)NCC(N)=O)cc1-n1c(C)cc(OCc2ccc(F)cc2F)c(Br)c1=O = 22%
COC(=O)Nc1nc2cc(Oc3ccc(NC(=O)Nc4cc(F)ccc4F)cc3)ccc2[nH]1.Cl = 0%

Read the next record carefully.
May I ask what %Inh has been recorded for "O=c1cc(N2CCOCC2)nc2n(Cc3cccc4ccccc34)ccn12" ?
0%

###

tested on: PAK3; conditions: concentration: 1 μM, replicates: in singlicate; n = 1
Each entry below carries its recorded %Inh.
Express it in %; write the number only.

Answered cases to consult:
O=C1Cc2cc(Nc3nc(NCc4cccc(S(=O)(=O)C(F)(F)F)c4)ncc3C(F)(F)F)ccc2N1 = 1
Cc1nnc(-c2ccc3ncc(-c4ccc(S(C)=O)cc4)n3c2)o1 (centres unmarked) = 0
COC(=O)Nc1nc2cc(Oc3ccc(NC(=O)Nc4cc(F)ccc4F)cc3)ccc2[nH]1.Cl = 0

Request - read-out %Inh | tested on PAK3 | molecule "Fc1ccc(-c2ncn(CCCN3CCOCC3)c2-c2cccnc2)cc1"
0

Request body: readout %Inh, system PAK3, query "C[C@@H](Oc1cc(-n2cnc3ccc(NC(=O)NC(C)(C)C)cc32)sc1C(N)=O)c1ccccc1Cl" . Return the value.
15

Record "CN1c2ccc(NCc3ccc(F)cc3)cc2-c2c(cnn2C)S1(=O)=O" : what is its %Inh with PAK3?
0

Could you share what %Inh was measured for Cc1c(Cn2c(C)nn3c(=O)cc(N4CCOC(C)C4)nc23)cccc1C(F)(F)F (centres unmarked) , tested on PAK3?
20

###

system: GRK1; conditions: concentration: 1 μM, replicates: in singlicate; n = 1
Documented %Inh across a set of molecules
Units required after the number.

Cc1ccc(C(=O)NCC(N)=O)cc1-n1c(C)cc(OCc2ccc(F)cc2F)c(Br)c1=O = 20%
Fc1ccc(-c2ncn(CCCN3CCOCC3)c2-c2cccnc2)cc1 = 16%
CC(=O)Nc1ccc(COc2ccc(Nc3ccnc4cc(-c5ccccn5)ccc34)cc2)cc1.Cl = 0%
Cc1cccc(Cn2ccn3c(=O)cc(N4CCOCC4)nc23)c1 = 0%

Pending molecule:
Would you kindly share the measured %Inh for "CSc1ccc(-c2cc3ncnc(SCC(=O)O)c3s2)cc1" ?
0%

###

system: LTK; settings: concentration: 1 μM, replicates: in singlicate; n = 1
PROPERTY_MEASURED: %Inh (%)
All answers are understood in %, so give the number only.

Below, each entry is followed by its recorded %Inh result.
COc1ccc(Nc2nccc(N3CCC(NC(=O)Nc4cccc(C(C)=O)c4)C3)n2)cc1 (stereo not drawn) = 0
Cl.Oc1cccc(Nc2ccnc3cc(-c4ccncc4)ccc23)c1 = 69
COc1cc(Nc2nccc(N3CCC(NC(=O)c4cccc(NC(C)=O)c4)C3)n2)cc(OC)c1OC (stereo not drawn) = 20
O=C(NCCNc1ccnc(Nc2ccc(F)cc2)n1)c1cc2ccccc2s1 = 0

Requested read-out %Inh, target or system LTK, entry "O=C1NC(=O)C(N2CCc3ccccc32)=C1c1cccc(Cl)c1"
5

What reported %Inh corresponds to "COc1cc2c(cc1OCCN1CCN(C)CC1)ncc1c3ccc(C#N)cc3[nH]c21" on LTK?
0

Form entry - test system: LTK; read-out: %Inh; compound: "Cc1cccc(-c2nc(-c3ccc(S(C)(=O)=O)cc3)sc2-c2ccncc2)c1"
0

Can you look up %Inh on LTK for "COc1cc2c(cc1OC[C@@H](O)CO)ncc1c3ccc(C#N)cc3[nH]c21" ?
0

Fill in the recorded %Inh for this compound, with LTK as test system: "Cc1ccc(NC(=O)c2ccnc(N3CCN(C)CC3)c2)cc1-c1ccc(C(=O)NCC2CC2)cc1"
0

###

# %Inh per record follows
system: DLK; construct: gene MAP3K12; conditions: concentration: 1 μM, replicates: in singlicate; n = 1
Field: numeric (%). Do not append units.

Consider the worked cases shown below.
O=C1Cc2cc(Nc3nc(NCc4cccc(S(=O)(=O)C(F)(F)F)c4)ncc3C(F)(F)F)ccc2N1 = 33
C[C@@H](Oc1cc(-n2cnc3ccc(NC(=O)NC(C)(C)C)cc32)sc1C(N)=O)c1ccccc1Cl = 33
COc1cc(Nc2nccc(N3CCC(NC(=O)c4cccc(NC(C)=O)c4)C3)n2)cc(OC)c1OC (stereo not drawn) = 62
CSc1ccc(-c2cc3ncnc(SCC(=O)O)c3s2)cc1 = 44
CC(=O)Nc1ccc(COc2ccc(Nc3ccnc4cc(-c5ccccn5)ccc34)cc2)cc1.Cl = 71

%Inh lookup needed for "Cl.Oc1cccc(Nc2ccnc3cc(-c4ccncc4)ccc23)c1" , thanks.
54

Given "O=c1cc(N2CCOCC2)nc2n(Cc3cccc4ccccc34)ccn12" , state its recorded %Inh.
0

Look up %Inh for this compound: "Cc1cccc(-c2nc(Nc3ccc4ncsc4c3)c3ccccc3n2)n1"
0

# input compound: "O=C(NOCC1CC1)c1ccc(F)c(F)c1Nc1ccc(I)cc1Cl" ; wanted: its %Inh
1

###

Each entry below carries its recorded pKd.
test system: ULK2;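 note: kd values determined as follow-up on hits from a single-replicate KINOMEscan panel screen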
pKd: −log10 of the molar value.

Cc1ccc(NC(=O)c2ccnc(N3CCN(C)CC3)c2)cc1-c1ccc(C(=O)NCC2CC2)cc1 = < 5.00

Could you now look at the following molecule, please?
What value of pKd on ULK2 does "NS(=O)(=O)c1cccc(-c2ccc3nccc(-c4cccc(S(N)(=O)=O)c4)c3c2)c1" have?
< 5.00

###

test system: LKB1; construct: gene STK11; conditions: concentration: 1 μM, replicates: in singlicate; n = 1
PROPERTY_MEASURED: %Inh (%)
Response body: numeric value in %, unit text excluded.

CN1c2ccc(NCc3ccc(F)cc3)cc2-c2c(cnn2C)S1(=O)=O = 23
Cc1ccc(C(=O)NCC(N)=O)cc1-n1c(C)cc(OCc2ccc(F)cc2F)c(Br)c1=O = 0
O=C1NC(=O)C(N2CCc3ccccc32)=C1c1cccc(Cl)c1 [SB-408010] = 0
COc1ccc(Nc2nccc(N3CCC(NC(=O)Nc4cccc(C(C)=O)c4)C3)n2)cc1 (centres unmarked) [GSK1379731] = 5

Please look at the following compound next.
Please provide the recorded %Inh for CN(C(=O)c1ccc(-c2cc(-c3c[nH]nc3-c3ccccn3)ccn2)cc1)C1CCOCC1 [GW810083] , tested on LKB1.
16

###

test system: CDK9; settings: concentration: 1 μM, replicates: in singlicate; n = 1
PROPERTY_MEASURED: %Inh (%)
Give your result in % as a bare value.

Reference set, count: 5
COc1cc2c(cc1OCCN1CCN(C)CC1)ncc1c3ccc(C#N)cc3[nH]c21 = 14
COCCNC(=O)c1ccc(-c2cc(C(=O)NC3CC3)cc(F)c2C)cc1 = 0
C[C@@H](Oc1cc(-n2cnc3ccc(NC(=O)NC(C)(C)C)cc32)sc1C(N)=O)c1ccccc1Cl = 0
CCc1ccnc(/C=C/c2n[nH]c3cc(Sc4ccccc4C(=O)NC)ccc23)c1 = 10
O=C(NCCNc1ccnc(Nc2ccc(F)cc2)n1)c1cc2ccccc2s1 = 0

Suppose we examine the compound COc1ccc(CNC(=O)NC2CCN(c3ccnc(Nc4ccc(OC)cc4)n3)C2)cc1 (stereo not drawn) ; what %Inh value has been reported?
0

Item Cc1c(Cn2c(C)nn3c(=O)cc(N4CCOC(C)C4)nc23)cccc1C(F)(F)F (stereo not drawn) has what recorded %Inh?
2

Given the entry "c1ccc(-c2n[nH]cc2-c2ccnc3ccccc23)nc1" , report its measured %Inh.
0

I am curious: what %Inh value has been reported for "[2H]C([2H])(c1cccc(C(F)(F)F)c1C)n1ccn2c(=O)nc(N3CCOCC3)cc12" ?
0
